Substrate: NC(=O)OP(=O)(O)O
Assay: purified protein
Format: biochemical, Escherichia coli
Details: 50 mM Tris pH 8.5, 20 °C, 20 mM NaCl, ornithine 3 mM

# Protein, kcat, s⁻¹
data = [
    ("OTC (E. coli ornithine transcarbamoylase, argI) (Escherichia coli K-12; R58A) (protein, full length, uncleaved 6xHis tag, pCA24N ASKA clone, expressed in BL21(DE3) Tuner; homotrimer of 333-residue subunits) SGFYHKHFLKLLDFTPAELNSLLQLAAKLKADKKSGKEEAKLTGKNIALIFEKDSTATRCSFEVAAYDQGARVTYLGPSGSQIGHKESIKDTARVLGRMYDGIQYRGYGQEIVETLAEYASVPVWNGLTNEFHPTQLLADLLTMQEHLPGKAFNEMTLVYAGDARNNMGNSMLEAAALTGLDLRLVAPQACWPEAALVTECRALAQQNGGNITLTEDVAKGVEGADFIYTDVWVSMGEAKEKWAERIALLREYQVNSKMMQLTGNPEVKFLHCLPAFHDDQTTLGKKMAEEFGLHGGMEVTDEVFESAASIVFDQAENRMHTIKAVMVATLSK", 7.5),
    ("OTC (E. coli ornithine transcarbamoylase, argI) (Escherichia coli K-12; H273L) (protein, full length, uncleaved 6xHis tag, pCA24N ASKA clone, expressed in BL21(DE3) Tuner; homotrimer of 333-residue subunits) SGFYHKHFLKLLDFTPAELNSLLQLAAKLKADKKSGKEEAKLTGKNIALIFEKDSTRTRCSFEVAAYDQGARVTYLGPSGSQIGHKESIKDTARVLGRMYDGIQYRGYGQEIVETLAEYASVPVWNGLTNEFHPTQLLADLLTMQEHLPGKAFNEMTLVYAGDARNNMGNSMLEAAALTGLDLRLVAPQACWPEAALVTECRALAQQNGGNITLTEDVAKGVEGADFIYTDVWVSMGEAKEKWAERIALLREYQVNSKMMQLTGNPEVKFLLCLPAFHDDQTTLGKKMAEEFGLHGGMEVTDEVFESAASIVFDQAENRMHTIKAVMVATLSK", 4.2),
    ("Escherichia coli ornithine transcarbamoylase (OTC) variant D231A, His-tagged (enzyme, E. coli, Anabolic ornithine transcarbamoylase of E. coli, argI gene, 333-residue subunit; Made by site-directed mutagenesis of the ASKA pCA24N plasmid; 6x-His tag not cleaved; source: E. coli BL21 (DE3) Tuner, purified (HisTrap FF, Superdex 200 SEC)) SGFYHKHFLKLLDFTPAELNSLLQLAAKLKADKKSGKEEAKLTGKNIALIFEKDSTRTRCSFEVAAYDQGARVTYLGPSGSQIGHKESIKDTARVLGRMYDGIQYRGYGQEIVETLAEYASVPVWNGLTNEFHPTQLLADLLTMQEHLPGKAFNEMTLVYAGDARNNMGNSMLEAAALTGLDLRLVAPQACWPEAALVTECRALAQQNGGNITLTEDVAKGVEGADFIYTAVWVSMGEAKEKWAERIALLREYQVNSKMMQLTGNPEVKFLHCLPAFHDDQTTLGKKMAEEFGLHGGMEVTDEVFESAASIVFDQAENRMHTIKAVMVATLSK", 0.48),
]
